All values here come from PubChem BioAssay AID651973.

system: Cell-based VP16 transactivation luciferase reporter, luminescence; experiment: compounds lowering VP16-driven luciferase output – cell-based, luminescence, counter-screen for LRH-1 inverse agonist project, dose response (AID 651973)
Calls of active or inactive are those of the source. How the calls were made is not given here.
assay-endpoint: IC50

COc1ccc(NS(=O)(=O)c2ccc(OCC(=O)N3CCN(C)CC3)cc2)cc1Cl
> 35.9 µM (inactive)
Cn1cc(Cl)c(C(=O)OCC(=O)Nc2ccc(S(N)(=O)=O)cc2)n1
> 35.9 µM (inactive)
CC1=CC(O)C(O)C2(C)C1CC1OC(=O)CC3C(C)C(O)C(=O)C2C13CO (stereo not given)
> 35.9 µM (inactive)
CC(C)(Oc1ccc(Cl)cc1)C(=O)OCC(=O)NCCc1ccccc1
> 35.9 µM (inactive)

Now, please, on to the next molecule.
Fill in IC50 for Cc1cc([N+](=O)[O-])ccc1NC(=O)CSc1nnc(C)n1C tested with Cell-based VP16 transactivation luciferase reporter, luminescence. > 35.8 µM (inactive)

* * *

system: Cell-based VP16 transactivation luciferase reporter, luminescence; experiment: compounds lowering VP16-driven luciferase output – cell-based, luminescence, counter-screen for LRH-1 inverse agonist project, dose response (AID 651973)
The source made the active and inactive calls. The rule behind the calls is not given here.
assay-endpoint: IC50

Field: example entries. Status: answers known.
Cc1cc(C)c2c(=O)[nH]c(SCC(=O)Nc3ccc(Br)cc3)nc2n1
> 35.9 µM (inactive)
O=C(CN1C(=O)CCC1=O)Nc1ccc(Br)cc1
> 35.9 µM (inactive)
COc1ccc(OCCNC(=O)C2(C)CCN2Cc2ccc3ccccc3c2)cc1 (configuration not stated)
23.8 µM (inactive)
CCCc1cc(=O)oc2c(C)c(OCC(=O)NC3CC(C)(C)NC(C)(C)C3)ccc12
> 35.9 µM (inactive)
CC(O)(c1cccnc1)c1nc(-c2cccc(C#N)c2)cs1 (configuration not stated)
> 35.9 µM (inactive)
COc1ccc(NC(=O)CSc2ncnc3[nH]ncc23)cc1
> 35.9 µM (inactive)

Report measured IC50; entry is O=C(Nc1ccc(Cc2ccncc2)cc1)c1cccc([N+](=O)[O-])c1 > 35.9 µM (inactive)

Give me measured IC50, please, for this compound: COc1ccc(CCNC(=O)COC(=O)C23CC4CC(CC(C4)C2)C3)cc1 > 35.9 µM (inactive)

* * *

Measured IC50 of individual entries
system: Cell-based VP16 transactivation luciferase reporter, luminescence; test: compounds lowering VP16-driven luciferase output – cell-based, luminescence, counter-screen for LRH-1 inverse agonist project, dose response (AID 651973)
Calls of active or inactive are those of the source. No rule for the calls is given here.

Example compounds with recorded IC50:
Cc1ccccc1Nc1nc(-c2cccnc2)nc2ccccc12
34.6 µM (inactive)
Cc1onc(-c2ccccc2)c1C(=O)O/N=C(\N)c1ccc([N+](=O)[O-])o1
> 35.9 µM (inactive)
COc1ccc(OC)c(NC(=O)c2ccccc2NC(=O)c2ccco2)c1
> 35.9 µM (inactive)
COc1ccc(-n2c(N)c(C(=O)NCc3cccnc3)sc2=S)cc1
> 35.9 µM (inactive)
COc1ccc(CCNC(=O)CSc2nc3[nH]c(=O)cc(O)c3s2)cc1
> 35.9 µM (inactive)

Supply IC50 measured with Cell-based VP16 transactivation luciferase reporter, luminescence for COc1ccccc1NC(=O)CN1CCN(CC(=O)Nc2ccc3c(c2)OCCO3)CC1 . > 35.9 µM (inactive)
